TGI listing for selected compounds.
tested on: A498 renal; experiment: NCI tumour cell line growth inhibition, 48 h

Some compounds with recorded TGI:
NC(=O)c1cc(-c2ccc(F)cc2)cc(-c2ccncc2)c1N; > 23.6 µM
O=[N+]([O-])c1cccc(-c2oc(C=Nc3ccccc3)c([N+](=O)[O-])c2-c2cccc([N+](=O)[O-])c2)c1; > 100 µM
O=C1C2C3C=CC(C2C(=O)N1COP(=O)(O)O)C1C2C(=O)N(COP(=O)(O)O)C(=O)C2C31 (configuration not stated); > 100 µM
CSc1ccc(NC(=S)NN(C)C)cc1; > 10 µM
O=C(O)c1cn2c3c(cc(N4CCN(CCO)CC4)cc3c1=O)SCC2; > 100 µM
O=S(=O)(O)ON=C1c2ccccc2-c2ccccc21; > 100 µM
CCOC(=O)NC(NC1=NCCS1)(C(=O)OCC)C(F)(F)F (configuration not stated); > 100 µM
Cc1cc(N(CCNc2ccnc3cc(Cl)ccc23)Cc2ccco2)nc(Cl)n1; 4.21 µM
N#C/C(=C\c1cc(Cl)cc(Cl)c1)c1ccccn1; 8.25 µM
CCC1CCc2nc3sc(C(=O)Nc4cccc(F)c4)c(N)c3cc2C1 (configuration not stated); > 100 µM

Value lookup for TGI; key = `CN1C(=O)[C@@H]2[C@@H]3c4ccccc4N(S(=O)(=O)C(F)(F)F)[C@@H]3c3[nH]c4ccccc4c3[C@@H]2C1=O`
> 100 µM

Query Cc1cc(C)nc(SC(C)C(=O)N/N=C/c2ccc(OCc3ccccc3)cc2)n1 (configuration not stated) next
> 100 µM

# iterate: COC(=O)C1CCC(=O)N1C(c1ccc(OC)cc1)c1ccc(OC)cc1 (configuration not stated)
> 100 µM

Note, next up: O=C(CCC(=O)C(C(=O)c1ccccc1)c1ccccc1)Nc1cccc(C(F)(F)F)c1 (configuration not stated)
> 100 µM

Would you mind doing CCCCS(=O)(=O)CCC(N)C(=O)O (configuration not stated) as well?
> 100 µM

# iterate: CC1OC(O[C@H]2C3C=CO[C@@H](OC4OC(CO)C(O)C(O)C4O)C3[C@@]3(COC(=O)/C=C/c4ccc(O)cc4)O[C@@H]23)C(O)C(O)C1O (some centres not stated)
> 100 µM

Now the compound `C=C(Br)N(CC)CC`
> 100 µM

Record: `C1CCN(c2nc(=[N+]3CCCCC3)ss2)CC1`
> 100 µM

What do we get for `CN(C)CCNC(=O)c1cccc2c1nc(-c1ccccc1)c1ccccc12` ?
16.9 µM

Repeat with `CCCCCCCCCCCCCC[n+]1ccc2c(C)c3c(c(C)c2c1)c1cc(O)ccc1n3CC`
1.27 µM

What about COc1ccc(/C=c2\sc3n(c2=O)C(N)=C(C#N)C(c2ccc(OC)cc2)C=3c2nc3ccccc3[nH]2)cc1 (configuration not stated) ?
> 100 µM

And what about the compound `CCOC(=O)c1c(N2CCCC2)[nH]c(=O)c(C(c2ccco2)c2c(O)c(C(=O)OCC)c(N3CCCC3)[nH]c2=O)c1O` ?
> 100 µM

Thanks! And `O=C1/C(=C/c2ccccc2O)N=C(c2ccccc2)N1c1nc2ccccc2s1` ?
53.1 µM

And COc1ccc(OC)c(CC2CCc3nc(N)nc(N)c3C2)c1 (configuration not stated) ?
62 µM

How about `Nc1nc(-c2ccccc2)nc2c1[n+]([O-])c1ccccc1[n+]2[O-]` ?
> 100 µM

Item: CN1c2ccccc2C(C)(C)C12C=Cc1cc(O)ccc1O2 (configuration not stated)
6.3 µM

Now this one: CC1OC2(CC(OCc3ccccc3)C1OCc1ccccc1)OCCO2 (configuration not stated)
> 100 µM

Subsequent entry: `COC(=O)c1c(N)n[nH]c1N`
> 100 µM

Queued: `C1=CC=C2NCCCNC3=CC=CC=CC3=NCCCN=C2C=C1`
> 100 µM

Now consider COc1cc(OC)c(C2CC=Cc3c(OC)cc(OC)c(OC)c32)cc1OC (configuration not stated) .
> 100 µM

Proceed to `CN(C)c1ccc(Nc2cc(-c3cccc(OC(F)(F)F)c3)nc3ccc(N4CCCC4)cc23)cc1`
10.6 µM

Now give it for `O=C(NP(=O)(N1CC1)N1CC1)c1cc(I)ccc1I` too.
> 100 µM

Next entry: `COCCCNC(=O)CC(=O)NCCCOC`
> 100 µM

Continue with O=C(Cc1nccc2c1[nH]c1ccccc12)OC1C#CCSCC#C/C=C\1 (configuration not stated)
> 100 µM

What do we get for `COc1cc(C2=C(C#Cc3ccccc3)COC2=O)cc(OC)c1OC` ?
> 100 µM

Follow-up entry: `N#Cc1c(N)nc(N2CCOCC2)c(C#N)c1-c1cccnc1`
80.8 µM

How about `Cc1cc(C)c2c(n1)S(=O)(=O)N(CCCN1CCN(c3cccc(C(F)(F)F)c3)CC1)c1c-2nn(C)c1C` ?
> 100 µM
